This collection of values is drawn from ChEMBL document CHEMBL1140411.

Recorded SI values for a group of molecules are listed next.
target: dUTP pyrophosphatase (Plasmodium falciparum 3D7); assay: Selectivity index for Plasmodium falciparum deoxyuridine 5'-triphosphate nucleotidohydrolase defined as (Ki Human)/(Ki Plasmodium falciparum)

Some solved entries appear below for comparison.
molecule=CC(C)(C)[Si](C)(C)O[C@H]1C[C@H](n2ccc(=O)[nH]c2=O)O[C@@H]1COS(N)(=O)=O tested_system="dUTP pyrophosphatase (Plasmodium falciparum 3D7)" property=SI result=3.7
molecule=O=C(OC[C@H]1O[C@@H](n2ccc(=O)[nH]c2=O)C[C@@H]1O)c1ccccc1 tested_system="dUTP pyrophosphatase (Plasmodium falciparum 3D7)" property=SI result="> 3"

Exercise: Returns the measured SI for the input molecule. Input: CC(C)(C)[Si](C)(C)O[C@H]1C[C@H](n2ccc(=O)[nH]c2=O)O[C@@H]1COC(c1ccccc1)(c1ccccc1)c1ccccc1
Solution: > 1.9

Exercise: Returns the measured SI for the input molecule. Input: NS(=O)(=O)OCC1C=CC(n2ccc(=O)[nH]c2=O)O1 (stereo not drawn)
Solution: > 4

Exercise: Returns the measured SI for the input molecule. Input: CC(=O)OC[C@H]1O[C@@H](n2ccc(=O)[nH]c2=O)C[C@@H]1O
Solution: > 3

Exercise: Returns the measured SI for the input molecule. Input: O=c1ccn(C2C=CC(COP(=O)(Oc3ccccc3)Oc3ccccc3)O2)c(=O)[nH]1 (stereo not drawn)
Solution: > 10

Exercise: Returns the measured SI for the input molecule. Input: CC(C)(C)[Si](C)(C)OCC1C=CC(n2ccc(=O)[nH]c2=O)O1 (stereo not drawn)
Solution: 5.6

Exercise: Returns the measured SI for the input molecule. Input: CC(C)(C)[Si](C)(C)O[C@H]1C[C@H](n2ccc(=O)[nH]c2=O)O[C@@H]1COC(=O)NS(N)(=O)=O
Solution: > 4

Exercise: Returns the measured SI for the input molecule. Input: CCCCC(=O)OC[C@H]1O[C@@H](n2ccc(=O)[nH]c2=O)C[C@@H]1O
Solution: > 4

Exercise: Returns the measured SI for the input molecule. Input: CC(C)(C)[Si](C)(C)O[C@H]1C[C@H](n2ccc(=O)[nH]c2=O)O[C@@H]1COP(=O)(Oc1ccccc1)Oc1ccccc1
Solution: > 1.7

Exercise: Returns the measured SI for the input molecule. Input: CC(C)(C)[Si](C)(C)OC1CC(n2ccc(=O)[nH]c2=O)OC1CNP(=O)(Oc1ccccc1)Oc1ccccc1 (stereo not drawn)
Solution: 3.5

Exercise: Returns the measured SI for the input molecule. Input: CCOP(=O)(CC(=O)OC[C@H]1O[C@@H](n2ccc(=O)[nH]c2=O)C[C@@H]1O)OCC
Solution: > 8

Exercise: Returns the measured SI for the input molecule. Input: CC(C)(C)[Si](OCC1C=CC(n2ccc(=O)[nH]c2=O)O1)(c1ccccc1)c1ccccc1 (stereo not drawn)
Solution: > 833

* * *

Target: dUTP pyrophosphatase (Leishmania major, UniProt O15826)
Sequence (O15826 whole entry): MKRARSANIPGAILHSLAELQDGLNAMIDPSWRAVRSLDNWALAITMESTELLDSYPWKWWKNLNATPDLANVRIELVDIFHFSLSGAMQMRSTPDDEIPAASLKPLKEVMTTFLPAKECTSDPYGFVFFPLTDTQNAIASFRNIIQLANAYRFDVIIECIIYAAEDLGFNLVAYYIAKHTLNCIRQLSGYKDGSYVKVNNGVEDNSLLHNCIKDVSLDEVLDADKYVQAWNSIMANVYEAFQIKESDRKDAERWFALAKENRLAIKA
Recorded Ki values for a group of compounds are listed next.

Some solved entries appear below for comparison.
compound=CC(C)(C)[Si](C)(C)O[C@H]1C[C@H](n2ccc(=O)[nH]c2=O)O[C@@H]1COP(=O)(Oc1ccccc1)Oc1ccccc1 property=Ki result="116 µM"
compound=CCOP(=O)(CC(=O)OC[C@H]1O[C@@H](n2ccc(=O)[nH]c2=O)C[C@@H]1O[Si](C)(C)C(C)(C)C)OCC property=Ki result="> 1000 µM"

Exercise: Returns the measured Ki for the input compound. Input: CS(=O)(=O)NCC1OC(n2ccc(=O)[nH]c2=O)CC1O (stereo not drawn)
Solution: > 1000 µM

Exercise: Returns the measured Ki for the input compound. Input: CC(C)(C)[Si](OCC1C=CC(n2ccc(=O)[nH]c2=O)O1)(c1ccccc1)c1ccccc1 (stereo not drawn)
Solution: 178 µM

Exercise: Returns the measured Ki for the input compound. Input: O=c1ccn(C2C=CC(COP(=O)(Oc3ccccc3)Oc3ccccc3)O2)c(=O)[nH]1 (stereo not drawn)
Solution: > 1000 µM

Exercise: Returns the measured Ki for the input compound. Input: O=c1ccn(C2C=CC(CO[Si](c3ccccc3)(c3ccccc3)c3ccccc3)O2)c(=O)[nH]1 (stereo not drawn)
Solution: 350 µM

Exercise: Returns the measured Ki for the input compound. Input: CC(C)(C)[Si](C)(C)OC1CC(n2ccc(=O)[nH]c2=O)OC1CNP(=O)(Oc1ccccc1)Oc1ccccc1 (stereo not drawn)
Solution: > 1000 µM

Exercise: Returns the measured Ki for the input compound. Input: CC(C)(C)[Si](OCC1OC(n2ccc(=O)[nH]c2=O)CC1F)(c1ccccc1)c1ccccc1 (stereo not drawn)
Solution: > 1000 µM
